// provenance: PubChem BioAssay AID1159580

# TEST NAME: chemical genetic growth profiling, strain panel (AID 1159580);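 note: tested at 20 µM; growth read once vehicle control cultures reached saturation at 30 °C; 1 = growth at the plate median or of vehicle wells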
# STUDY CONDITIONS: S. cerevisiae deletion strains, growth OD, locus YLR102C, strain apc9, stronger effect = lower value
The whole screen tested about 5,500 compounds, of which about 2,000 (36%) were called active. About 18% were inconclusive and are not listed. The list shows a part of the results. Where a SMILES comes first, the peptide text is derived from it. Bridges are numbered along the chain shown (N, C = ends). [ ]: non-standard residue; d: D form. The star is where a group is joined. Octanoyl(6-Me) = CCC(C)CCCCC(=O)*; Orn = NCCC[CH](N)C(=O)O; Dab = NCC[CH](N)C(=O)O
PROPERTY: normalized growth

>>> observed("CC(C)CC1NC(=O)C(CCCN)NC(=O)C(C(C)C)NC(=O)C2CCCN2C(=O)C(Cc2ccccc2)NC(=O)C(CC(C)C)NC(=O)C(CCCN)NC(=O)C(C(C)C)NC(=O)C2CCCN2C(=O)C(Cc2ccccc2)NC1=O (configuration not stated) (cyclo(FPV[Orn]LFPV[Orn]L); configuration not given here)")
"1.01 (inactive)"
>>> observed("CCC(C)CCCCC(=O)NC(CCN)C(=O)NC(C(=O)NC(CCN)C(=O)NC1CCNC(=O)C(C(C)O)NC(=O)C(CCN)NC(=O)C(CCN)NC(=O)C(CC(C)C)NC(=O)C(Cc2ccccc2)NC(=O)C(CCN)NC1=O)C(C)O (configuration not stated) ({Octanoyl(6-Me)}-[Dab]T[Dab][Dab][Dab]FL[Dab][Dab]T; lactam 4-C; configuration not given here)")
"1.01 (inactive)"

----------
# TEST NAME: chemical genetic growth profiling, strain panel (AID 1159580)
# STUDY CONDITIONS: S. cerevisiae deletion strains, growth OD, locus YIL147C, strain SLN1
The campaign covered roughly 5,500 compounds. About 2,000 (36%) were called active. Inconclusive results (about 18%) are left out. Rule as the data show it: active = normalized growth mostly below about 0.91 (no sharp cut-off); inconclusive = no clear call, values can overlap the other calls; inactive = mostly above about 0.92. This is one part of the list.
Outcomes: True for active, False for inactive

>>> group_label("Clc1ccc(N/N=C\\c2sccc2Oc2ccccc2)cc1")
"False"
>>> group_label("O=C(c1cc2c(s1)-c1ccccc1CC2)N1CCN(Cc2ccccc2)CC1")
"False"
>>> group_label("FC(F)(F)c1cc(-c2ccc(Cl)cc2)n[nH]1")
"False"
>>> group_label("O=C(NNC(=S)Nc1ccc(Cl)cc1)c1ncc(C(F)(F)F)cc1Cl")
"False"
>>> group_label("Cc1ccc(OCc2n[nH]c(=S)n2Cc2ccccc2)c2c1CCC2")
"False"
>>> group_label("CS/C(Nc1cccc(C(F)(F)F)c1)=C(/C#N)S(=O)(=O)c1ccc(Cl)cc1")
"False"
>>> group_label("Cc1ccc2nc(-c3ccc([N+](=O)[O-])o3)oc(=O)c2c1")
"True"
>>> group_label("COc1ccc(C2CC(c3ccc(C)cc3C)=NN2C(C)=O)cc1 (configuration not stated)")
"False"
>>> group_label("CC(C)(C)c1ccc(C(=O)NNC(=S)Nc2ccc(Cl)cc2)cc1")
"False"
>>> group_label("C/C(=N/NC(=O)c1ccc(C(C)(C)C)cc1)c1ccccc1O")
"False"
>>> group_label("CC(C)(C)C(=O)c1sc2sc(C(=O)C(C)(C)C)c(N)c2c1N")
"False"
>>> group_label("O=C(Nc1cccnc1)c1cc2c(s1)-c1ccccc1CC2")
"False"
>>> group_label("S=C(N/N=C\\c1cccs1)NC1CC2CCC1C2 (configuration not stated)")
"False"
>>> group_label("N#C/C(=N/Nc1cccc(C(F)(F)F)c1)C(=O)c1csc(-c2cccnc2)n1")
"False"
>>> group_label("CC(=O)c1ccccc1C(=O)c1ccc(C(C)(C)C)cc1")
"False"
>>> group_label("O=c1c(-c2ccccc2)c(O)c2cccc3c4c(n1c23)CCCC4")
"False"
>>> group_label("OC(CSc1ccccc1)CN1CCN(c2nc(-c3ccccc3)ns2)CC1 (configuration not stated)")
"False"

----------
# TEST NAME: chemical genetic growth profiling, strain panel (AID 1159580)
# STUDY CONDITIONS: S. cerevisiae deletion strains, growth OD, locus YPL204W, strain HRR25, stronger effect = lower value
The whole screen tested about 5,500 compounds, of which about 2,000 (36%) were called active. Not shown: some 18% with an inconclusive outcome. The list shows a part of the results.
The entries below come with measured normalized growth values attached.
PROPERTY: normalized growth

>>> observed("COc1ccc(C2CC(c3ccc(C)cc3C)=NN2C(C)=O)cc1 (stereo unspecified)")
0.922
>>> observed("O=c1c(-c2ccccc2)c(O)c2cccc3c4ccccc4n1c23")
0.126
>>> observed("O=C(NNC(=S)Nc1ccc(Cl)cc1)c1ncc(C(F)(F)F)cc1Cl")
0.86
>>> observed("S=C(Nc1ccc(Cl)cc1)Nc1ccc(Cl)cc1")
0.778
>>> observed("CC(C)(C)c1ccc(C(=O)NNC(=S)Nc2ccc(Cl)cc2)cc1")
0.907
>>> observed("Clc1ccc(N/N=C\\c2sccc2Oc2ccccc2)cc1")
0.338
>>> observed("OC(CSc1ccccc1)CN1CCN(c2nc(-c3ccccc3)ns2)CC1 (stereo unspecified)")
0.932
>>> observed("CC(C)(C)C(=O)c1sc2sc(C(=O)C(C)(C)C)c(N)c2c1N")
0.646
>>> observed("C/C(=N/NC(=O)c1ccc(C(C)(C)C)cc1)c1ccccc1O")
0.967
>>> observed("S=C(N/N=C\\c1cccs1)NC1CC2CCC1C2 (stereo unspecified)")
0.842
>>> observed("Cc1ccc2nc(-c3ccc([N+](=O)[O-])o3)oc(=O)c2c1")
0.116

----------
# TEST NAME: chemical genetic growth profiling, strain panel (AID 1159580);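 note: tested at 20 µM; growth read once vehicle control cultures reached saturation at 30 °C; 1 = growth at the plate median or of vehicle wells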
# STUDY CONDITIONS: S. cerevisiae deletion strains, growth OD, locus YOR083W, strain WHI5, stronger effect = lower value
Out of some 5,500 compounds screened, about 2,000 (36%) were called active. About 18% were inconclusive and are not listed. This is one part of the list.
PROPERTY: normalized growth

>>> observed("Cc1ccc(N(CC2=NCCN2)c2cccc(O)c2)cc1")
"0.969 (inactive)"
>>> observed("NCCc1cc(O)c(O)cc1O")
"0.896 (inactive)"
>>> observed("CC(=O)OCC1=C(C(=O)O)N2C(=O)[C@@H](NC(=O)CCCC(N)C(=O)O)C2SC1 (some centres not stated)")
"0.993 (inactive)"
>>> observed("COc1ccc(C2C(=O)c3ccccc3C2=O)cc1")
"1.01 (inactive)"
>>> observed("Cc1cc(C(C)(C)C)cc(C)c1CC1=NCCN1")
"0.99 (inactive)"
>>> observed("O=C1c2ccccc2C(=O)C1c1ccccc1")
"0.999 (inactive)"
>>> observed("Cc1cc(=O)n(-c2ccccc2)n1C")
"0.949 (inactive)"

----------
# TEST NAME: chemical genetic growth profiling, strain panel (AID 1159580);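 note: tested at 20 µM; growth read once vehicle control cultures reached saturation at 30 °C; 1 = growth at the plate median or of vehicle wells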
# STUDY CONDITIONS: S. cerevisiae deletion strains, growth OD, locus YLR262C, strain YPT6
Among all 5,500 compounds or so, about 2,000 (36%) were called active. About 18% were inconclusive and are not listed. No stated cut-off is given here; in the data, active means normalized growth mostly below about 0.91 (no sharp cut-off); inconclusive means no clear call, values can overlap the other calls; inactive means mostly above about 0.92. Some of the results follow.
Outcomes: active, inactive

>>> group_label("COc1cc2nc(-c3cccs3)oc(=O)c2cc1OC")
"inactive"
>>> group_label("CC(C)S(=O)(=O)c1csc(C(N)=O)c1Cl")
"inactive"
>>> group_label("NC(=O)NO")
"inactive"
>>> group_label("CNC(Cc1c[nH]c2ccccc12)C(=O)O (centres undefined)")
"inactive"
>>> group_label("CC(=O)C1C(=O)CC(c2ccc(Cl)cc2)CC1=O (centres undefined)")
"active"
>>> group_label("NCCc1c[nH]c2ccccc12")
"inactive"
>>> group_label("COC(=O)c1scc(S(=O)(=O)C(C)C)c1N/N=C(/C#N)C(=O)c1ccccc1")
"inactive"
>>> group_label("O=C(OC[C@H]1O[C@H](OC(=O)c2cc(O)c(O)c(OC(=O)c3cc(O)c(O)c(O)c3)c2)[C@H](OC(=O)c2cc(O)c(O)c(OC(=O)c3cc(O)c(O)c(O)c3)c2)[C@@H](OC(=O)c2cc(O)c(O)c(OC(=O)c3cc(O)c(O)c(O)c3)c2)[C@@H]1OC(=O)c1cc(O)c(O)c(OC(=O)c2cc(O)c(O)c(O)c2)c1)c1cc(O)c(O)c(OC(=O)c2cc(O)c(O)c(O)c2)c1")
"active"
>>> group_label("CC(=O)N[C@@H](Cc1c[nH]c2ccccc12)C(=O)O")
"inactive"

----------
# TEST NAME: chemical genetic growth profiling, strain panel (AID 1159580);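 note: tested at 20 µM; growth read once vehicle control cultures reached saturation at 30 °C; 1 = growth at the plate median or of vehicle wells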
# STUDY CONDITIONS: S. cerevisiae deletion strains, growth OD, locus YER167W, strain BCK2, stronger effect = lower value
Out of some 5,500 compounds screened, about 2,000 (36%) were called active. Roughly 18% stayed inconclusive and do not appear here. Some of the results follow.
The label rule met is reserved for normalized growth strictly under 1; rule not met covers values equal to or above it.

>>> group_label("C=C(C)[C@H]1Cc2c(ccc3c2O[C@@H]2COc4cc(OC)c(OC)cc4[C@@H]2C3=O)O1")
"rule met"
>>> group_label("CC(=O)c1cc2c(cc1O)OC(C)(C)C=C2")
"rule met"
>>> group_label("CC1(C)C=Cc2cc3ccc(=O)oc3cc2O1")
"rule met"
>>> group_label("CC(=O)OCC1=C(C(=O)O)N2C(=O)[C@@H](NC(=O)CCCC(N)C(=O)O)C2SC1 (some centres undefined)")
"rule not met"
>>> group_label("COc1ccc2c(=O)ccoc2c1")
"rule not met"
